- TARGET OF ASSAY: GDP-loaded KRAS G12D (Homo sapiens (Human), UniProt P01116, G12D)
- Sequence (P01116-2 other isoform, or with tags, fused parts or gaps G12D): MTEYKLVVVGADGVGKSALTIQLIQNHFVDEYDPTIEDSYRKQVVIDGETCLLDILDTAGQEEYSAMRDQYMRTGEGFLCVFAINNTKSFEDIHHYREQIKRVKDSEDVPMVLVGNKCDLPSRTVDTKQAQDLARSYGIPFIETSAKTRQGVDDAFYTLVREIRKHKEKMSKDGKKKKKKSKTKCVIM
- EXPERIMENT SUMMARY: KRAS G12D (GDP) biochemical assay (TR-FRET probe displacement)
- EXPERIMENTAL CONTEXT: 2 hours
Returns: string. Value is fulfilled if measured IC50 is below 0.5 nM, and not fulfilled if it is greater than or equal to it.

Check out these entries, answers already filled in.
MOLECULE	ASSIGNED CLASS
C#Cc1c(F)ccc2cc(O)cc(-c3nc4c5c(nc(OC[C@@]67CCCN6[C@H](COC(C6CC6)C(F)(F)F)CC7)nc5c3F)N3C[C@H]5CC[C@H](N5)[C@H]3CC4)c12 (some centres unmarked) [Example 110]	fulfilled
C#Cc1c(F)ccc2cccc(-c3nc4c5c(nc(OC[C@]67CCCN6C[C@H](OC(C(F)(F)F)(C(F)(F)F)C(F)(F)F)C7)nc5c3F)N3C[C@H]5CC[C@H](N5)[C@H]3CC4)c12	not fulfilled
C#Cc1c(F)ccc2cccc(-c3nc4c5c(nc(OC[C@@]67CCCN6[C@H](COc6cnc(C(F)F)cn6)CC7)nc5c3F)N3C[C@H]5CC[C@H](N5)[C@H]3CCC4)c12	fulfilled
C#Cc1c(F)ccc2cccc(-c3nc4c5c(nc(OC[C@@]67CCCN6[C@H](CF)CC7)nc5c3F)N3C[C@H]5CC[C@H](N5)[C@H]3CC[C@H]4C)c12	fulfilled
C#Cc1c(F)ccc2cccc(-c3nc4c5c(nc(OC[C@@]67CCCN6[C@H](COc6cc(C(F)(F)F)cnn6)CC7)nc5c3F)N3C[C@H]5CC[C@H](N5)[C@H]3CCC4)c12	fulfilled

Query block: is_below(IC50, 0.5 nM) for Oc1cc(-c2nc3c4c(nc(OC[C@@]56CCCN5C[C@@]5(CC5(F)F)C6)nc4c2F)N2C[C@H]4CC[C@H](N4)[C@H]2CC3)c2c(OC(F)(F)F)c(F)ccc2c1 ?
Result block: not fulfilled

Query block: Likewise for C#Cc1c(F)ccc2cccc(-c3nc4c5c(nc(OC[C@@]67CCCN6C[C@H](F)C7)nc5c3F)N3C[C@H]5CC[C@H](N5)[C@H]3C[C@H]4C)c12 ?
Result block: not fulfilled

Query block: Then what about the molecule Oc1cc(-c2nc3c4c(nc(OC[C@@]56CCCN5C[C@H](F)C6)nc4c2F)N2C[C@H]4CC[C@H](N4)[C@H]2CO3)c2c(F)cccc2c1 ?
Result block: not fulfilled
